# Test system: Human immunodeficiency virus 1
# Assay procedure: Antiviral activity against HIV-1 2802 infected in C8166 cells
# Type: functional, organism-based
# Experimental context: Human immunodeficiency virus 1, 2802, C8166
Property label: EC50 (µM)
Report the figure in µM without appending any unit label.

Reported EC50 ( COc1ccc(OCC(=O)NCCOCCOCCNc2cccc3c2C(=O)N(C2CCC(=O)NC2=O)C3=O)cc1NC(=O)c1c(N)cccc1Sc1ccc([N+](=O)[O-])cc1 (configuration not stated) ) = 7.3

Data credit: ChEMBL document CHEMBL6127009
